- measurement.description: Cmax at steady state in diet-induced obese C57BL/6J mouse model plasma at 100 mg/kg, po qd dosed through CMC/Tween 80 suspension for 14 days measured at day 14
- Assay type: ADME, organism-based
- Set-up: dose 100 mg/kg, route oral
recorded.metric: Cmax (µM)
Answers are plain numbers, in µM.

Form field: reported Cmax of Cc1nc(N2CCC(O)(C3CC3)CC2)nc2ccc(NC(=O)/C=C/c3ccc(Cl)cc3)cc12 5.9

* * *

- measurement.description: AUC (0 to 24 hrs) in dog at 5 mg/kg, po
- Assay type: ADME, organism-based, Canis lupus familiaris
- Set-up: time < 24 hr, dose 5 mg/kg, route oral
- condition.context: plasma
recorded.metric: AUC(0-t) at 24 h (µM·h)
Numbers only, in µM·h.

Form field: reported AUC(0-t) at 24 h of CS(=O)(=O)O.Cc1nc(N2CCC(O)(C3CC3)CC2)nc2ccc(NC(=O)/C=C/c3ccc(Cl)cc3)cc12 37.7

All values here come from ChEMBL document CHEMBL2016485.
